Values compiled from PubChem BioAssay (NCI).

System: SK-MEL-28 melanoma
Assay: NCI-60 one-dose screen, 48 h
Details: 10 µM unless noted
About 83,000 compounds went through this panel and 20% of them were active in at least one assay; those are over-represented in the sample as a whole. Activity calls are given as the source filed them. How the source made its calls: active means growth percent below 10; inactive means the rest.
Your reply should match one of these outcome classes. active, inactive

Record excerpt, results attached:
>  <Molecule>
COc1ccc(/C=C2\CCc3ccccc3C2=O)cc1

>  <Assay system>
SK-MEL-28 melanoma

>  <Label>
inactive

$$$$
>  <Molecule>
COc1ccc2c(c1)sc1nc(-c3ccc(Br)cc3)cn12

>  <Assay system>
SK-MEL-28 melanoma

>  <Label>
inactive

$$$$
>  <Molecule>
Cn1cc(NC(=O)Nc2cc(C(=O)O)n(C)c2)cc1C(=O)O

>  <Assay system>
SK-MEL-28 melanoma

>  <Label>
inactive

$$$$
>  <Molecule>
c1ccc2c(-c3nc4ccccc4[nH]3)cccc2c1

>  <Assay system>
SK-MEL-28 melanoma

>  <Label>
inactive

$$$$
>  <Molecule>
O=C(O)CCNS(=O)(=O)c1ccc(-c2ccccc2)cc1

>  <Assay system>
SK-MEL-28 melanoma

>  <Label>
inactive

$$$$

// query How did this test come out for COC(=O)Nc1ccc2ccc3c(NC(=O)OC)ccc4ccc1c2c43 (tested in a mixture with another compound) ?
// result inactive

// query How did this test come out for COc1cnc2c(c1)C(=O)c1c-2n(CCCN2CCC(O)CC2)c(=O)c2cc(F)ccc12 ?
// result inactive

// query How did this test come out for Cc1ccc(NC(=O)c2sc3nc4c(cc3c2N)C(=O)CCC4)cc1 ?
// result inactive

// query How did this test come out for O=[N+]([O-])c1ccc(N=Nc2c(Cl)cc(O)cc2Cl)cc1 ?
// result active

// query How did this test come out for FC(F)(F)c1cc(-c2nnc3n2N=C(N2CCCC2)CS3)cc(C(F)(F)F)c1 ?
// result inactive

// query How did this test come out for O=C1NC(=O)/C(=C\c2ccco2)S1 ?
// result inactive
